Below, each of the compounds is paired with its reported IC50 value.
# TEST_TARGET: LCK (Homo sapiens (Human))
# Sequence (P06239 whole entry): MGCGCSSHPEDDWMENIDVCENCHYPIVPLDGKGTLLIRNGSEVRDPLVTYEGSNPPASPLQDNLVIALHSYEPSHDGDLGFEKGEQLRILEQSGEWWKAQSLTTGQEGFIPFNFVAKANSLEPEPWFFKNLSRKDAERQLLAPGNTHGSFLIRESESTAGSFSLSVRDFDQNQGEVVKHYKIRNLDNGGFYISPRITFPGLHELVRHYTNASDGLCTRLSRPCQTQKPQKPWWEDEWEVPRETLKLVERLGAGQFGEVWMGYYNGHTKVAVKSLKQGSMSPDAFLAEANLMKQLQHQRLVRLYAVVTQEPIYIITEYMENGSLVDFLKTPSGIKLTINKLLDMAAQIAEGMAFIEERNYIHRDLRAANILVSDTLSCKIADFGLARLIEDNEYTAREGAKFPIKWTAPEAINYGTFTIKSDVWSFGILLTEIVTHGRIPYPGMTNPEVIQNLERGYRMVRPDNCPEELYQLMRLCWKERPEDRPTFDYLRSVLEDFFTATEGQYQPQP
# ASSAY_PROCEDURE: In vitro assay: kinase binding to immobilized ligand, captured kinase measured by qPCR

{"COMPOUND": "Cc1ncc2c(C(N)=O)c(N)n(-c3c(C)ccc(O)c3C)c2n1 (single isomer, unassigned) [Compound 578]", "IC50": "> 1000 nM"}
{"COMPOUND": "COc1cnc(C)c(-n2c(N)c(C(N)=O)c3cc(Cl)cnc32)c1C", "IC50": "100 to 1000 nM"}
{"COMPOUND": "Cc1ccc(O)c(C)c1-n1c(N)c(C(N)=O)c2cnc(-c3ccc(C(C)(C)C)cc3)nc21", "IC50": "100 to 1000 nM"}
{"COMPOUND": "Cc1c(O)cc(F)c(C)c1-n1c(N)c(C(N)=O)c2cncc(F)c21", "IC50": "< 50 nM"}
